Sourced from patent US20210122826A1

- target under test: T1, Human Clec10A (human, UniProt Q8IUN9 1-316)
- T1 construct: also called hClec10A
- T1 sequence: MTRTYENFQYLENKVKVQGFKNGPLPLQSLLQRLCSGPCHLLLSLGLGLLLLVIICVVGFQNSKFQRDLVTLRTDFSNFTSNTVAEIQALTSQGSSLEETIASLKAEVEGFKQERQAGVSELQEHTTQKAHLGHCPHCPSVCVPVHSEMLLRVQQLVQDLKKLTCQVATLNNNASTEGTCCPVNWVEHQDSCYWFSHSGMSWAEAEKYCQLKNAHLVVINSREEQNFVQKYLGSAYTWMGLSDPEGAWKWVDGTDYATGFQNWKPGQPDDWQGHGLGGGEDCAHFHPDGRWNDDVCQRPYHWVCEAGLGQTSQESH
- assay remarks: flow, Jurkat, 100 nM Ab
property: MFI normalized to WT
Enter the number alone.

[[record]]
binder = "KW7.3.7 (antibody, V domains shown) VH: EVQLVESGGGLVQPGGSLRLSCAASGFTFSSYAMSWVRQAPGKGLEWVSATSGSGGSTYYADSAKGRFTISRDNSKNTLYLQMNSLRAEDTAVYYCARGGYLPDAFDYWGRGTLVTVSS VL: DIQMTQSPSSLSASVGDRVTITCWASQSISSYLNWYQQEPGKAPKLLIYAASSLQSGVPSRFSGSGSGTDFTLTISSLQPEDFATYYCQQTYSTPLTFGQGTKVEIK"
property = "MFI normalized to WT"
value_reported = 0.89

[[record]]
binder = "KW1.2.1 (antibody, V domains shown) VH: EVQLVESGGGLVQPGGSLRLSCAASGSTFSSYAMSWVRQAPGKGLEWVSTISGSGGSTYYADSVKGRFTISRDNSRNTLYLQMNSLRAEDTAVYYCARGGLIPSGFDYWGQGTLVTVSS VL: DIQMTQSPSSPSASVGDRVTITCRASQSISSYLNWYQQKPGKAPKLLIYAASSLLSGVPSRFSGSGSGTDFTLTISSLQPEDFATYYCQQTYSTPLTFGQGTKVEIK"
property = "MFI normalized to WT"
value_reported = 0.94

[[record]]
binder = "KM12.2.3 (antibody, human IgG1, V domains shown) VH: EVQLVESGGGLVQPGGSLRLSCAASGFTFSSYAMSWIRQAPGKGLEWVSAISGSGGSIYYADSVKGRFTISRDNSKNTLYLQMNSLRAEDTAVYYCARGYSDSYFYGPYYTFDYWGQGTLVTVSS VL: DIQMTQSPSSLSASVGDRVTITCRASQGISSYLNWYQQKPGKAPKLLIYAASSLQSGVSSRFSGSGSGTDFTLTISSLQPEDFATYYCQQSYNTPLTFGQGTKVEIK"
property = "MFI normalized to WT"
value_reported = 1.44

[[record]]
binder = "KW9.3.3 (antibody, V domains shown) VH: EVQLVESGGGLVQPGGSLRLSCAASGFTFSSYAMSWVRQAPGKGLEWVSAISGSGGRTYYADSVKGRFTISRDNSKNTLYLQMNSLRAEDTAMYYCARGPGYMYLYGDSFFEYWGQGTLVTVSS VL: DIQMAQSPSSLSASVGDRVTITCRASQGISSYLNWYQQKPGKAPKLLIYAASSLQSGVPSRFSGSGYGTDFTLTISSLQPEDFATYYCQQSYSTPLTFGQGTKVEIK"
property = "MFI normalized to WT"
value_reported = 0.86


Now look at this one.
IN: Look at this binder and give its reported MFI normalized to WT. KW1.3.12 (antibody, human IgG1, V domains shown) VH: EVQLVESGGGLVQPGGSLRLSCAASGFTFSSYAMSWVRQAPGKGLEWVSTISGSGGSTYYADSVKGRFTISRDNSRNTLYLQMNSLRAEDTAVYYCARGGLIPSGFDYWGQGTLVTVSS VL: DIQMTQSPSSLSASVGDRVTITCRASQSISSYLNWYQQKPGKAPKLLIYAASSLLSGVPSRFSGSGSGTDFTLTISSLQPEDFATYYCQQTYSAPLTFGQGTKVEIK
OUT: 0.9
